# ASSAY: in vitro
# Type: cell-based
# CONDITION INFO: human
# maps each entry to its CC50

COMPOUND	CC50
CCCCCc1ccc(-c2cc3cn([C@H]4CC(OC(=O)C(N)C(C)C)[C@@H](CO)O4)c(=O)nc3o2)cc1 (stereo partly drawn) [Compound 3, reference compound]	> 5 µM
CCCCCc1ccc(-c2cc3cn([C@H]4CC(O)[C@@H](COC(=O)C(N)C(C)C)O4)c(=O)nc3o2)cc1 (stereo partly drawn) [Compound 5, reference compound]	> 0.5 µM

Consider now this further compound.
Endpoint output: CC50 of CCCCCc1ccc(-c2cc3cn(C4CC(OC(=O)C(NC(=O)C5CCCN5C(=O)C(N)C(C)C)C(C)C)C(CO)O4)c(=O)nc3o2)cc1 (stereo not drawn) [Compound 9] . Value? > 5 µM

----------
# ASSAY: Water-solubility by HPLC
# Format: physicochemical
# CONDITION INFO: thermodynamic from solid; deionised water, room temperature; read-out: water-solubility
EXPERIMENTAL ENDPOINT: solubility (mg/mL)
Expressed in mg/mL, but write only the number.

What value of solubility has been recorded for this entry: CCCCCc1ccc(-c2cc3cn([C@H]4CC(O)[C@@H](CO)O4)c(=O)nc3o2)cc1 (stereo partly shown) [Compound 1, reference compound] 0.022

----------
# System: HEL cells
# ASSAY: in vitro
# Type: cell-based
EXPERIMENTAL ENDPOINT: CC50

Requested read-out: CC50. Entry: CCCCCc1ccc(-c2cc3cn([C@H]4C[C@H](O)[C@@H](COC(=O)[C@@H](NC(=O)[C@@H]5CCCN5C(=O)[C@@H](N)C(C)C)C(C)C)O4)c(=O)nc3o2)cc1 [Compound 7] > 500 nM
